- tested system: T1, PD-L1 on 293T cells (UniProt Q9NZQ7 19-290)
- T1 construct: whole, on cells; also called PD-L1-293T; 293T-PD-L1 cells
- T1 sequence (Q9NZQ7 19-290 limits assumed): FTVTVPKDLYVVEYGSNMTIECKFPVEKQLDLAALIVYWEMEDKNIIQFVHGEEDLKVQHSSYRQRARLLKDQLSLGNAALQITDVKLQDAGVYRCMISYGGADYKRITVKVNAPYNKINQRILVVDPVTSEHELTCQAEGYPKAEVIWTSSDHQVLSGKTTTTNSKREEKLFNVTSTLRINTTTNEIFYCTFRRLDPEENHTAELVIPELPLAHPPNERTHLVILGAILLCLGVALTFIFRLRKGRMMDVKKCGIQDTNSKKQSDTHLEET
- assay notes: flow cytometry competition: blocks biotin-labeled PD-1 binding to PD-L1-293T cells
property measured: IC50

binder	property measured	assay result
m13C5 (antibody, V domains shown, Murine hybridoma IgG (printed 'mIgG'); also called 13C5-mIgG; 13C5 murine) VH: EVKLVESGGGLVKPGGSLKLSCAASGFIFRSYGMSWVRQTPEKRLEWVASISSGGSTYYPDSVKGRFTISRDNARNILYLQMSSLRSEDTAMYDCARGYDSGFAYWGQGTLVTVSE VL: DIVLTQSPASLAVSLGQRATISCRASQSVSTSSSSFMHWYQQKPGQPPKLLIKYASNLESGVPARFSGSGSGTDFTLNIHPVEEEDTATYYCQHSWEIPYTFGGGTKLEIKR	IC50	0.0289 µg/mL
m5G9 (antibody, V domains shown, Murine hybridoma IgG (printed 'mIgG'); also called 5G9-mIgG; 5G9 murine) VH: EVKLVESGGGLVKPGGSLKLSCAASGFTFRSYGMSWVRQTPEKRLEWVASISSGGTTYYPDSVKGRFIISRDNARNILYLQMSSLRSEDTAMYYCAKGYDSGFAYWGQGTLVIVSA VL: DIVLTQSPPSLAVSLGQRATISCRASQSVSTSSSSYMHWYQQKPGQPPKLLIKYASNLESGVPARFSGSGSGTDFTLNIHPVEEEDTATYYCQHSWEIPYTFGGGTKLEIK	IC50	0.0491 µg/mL
m7B4 (antibody, V domains shown, Murine hybridoma IgG (printed 'mIgG'); also called 7B4-mIgG; 7B4 murine) VH: EVKLFESGGGLVQPGGSLKLSCVASGFDFSTYWMHWVRQAPGQGLEWIGQINPDSTTINYAPSLKDRFIISRDNAKNTLFLQMSKVRSEDTALYYCAKPGDYGYDFDCWGQGTTLTVSS VL: DVLMTQTPLYLPVSLGDQASISCRSSQIIVHSNANTYLEWFLQKPGQSPKLLIYKVSNRFSGVPDRFSGSGSGTDFTLKISRVEAEDLGVYYCFQGSHVPYTFGGGTKLEIK	IC50	0.0381 µg/mL
m15F1 (antibody, V domains shown, Murine hybridoma IgG (printed 'mIgG'); also called 15F1-mIgG; 15F1 murine) VH: EEKLVESGGGLVKPGGSLKLSCAASGFSFSSYGMSWVRQTPEKRLEWVASISSGGSIYYPDSVKGRFTISRDNARNILYLQMSSLRSEDTAMYYCARGYDAGFAFWGQGTLVTASA VL: DIVLTQSPASLAVSLGQRATISCRASQSVSTSSYSYVHWYQQKPGQPPKLLIKYASNLESGVPARFSGSGSGTDFTLNIHPVEEEDTATYYCQHSWEIPYTFGGGTKLEIK	IC50	0.0211 µg/mL
ch8H4-hIgG4 (antibody, V domains shown, Mouse-human chimeric IgG4 (F234A/L235A), human kappa; also called Chimeric 8H4-IgG4 (F234A/L235A); chimeric 8H4-hIgG4) VH: EVKLVESGGGLVKPGGSLKLSCAASGFTFRSYGMSWARQIPEKRLEWVASISSGGTTYYLGSVQGRFTISRDNARNILYLQMSSLRSEDTAMYYCARGYDAGFAYWGQGTLVSVSS VL: DIVLTQSPASLAVSLGQRATISCRASQSVSTSSYSYMHWYQQKPGQPPKLLIKYASNLESGVPARFSGSGSGTDFTLNIHPVEEEDTATYYCQNSWEIPYTFGGGTKLEIKR	IC50	0.042 µg/mL
m5G11 (antibody, V domains shown, Murine hybridoma IgG (printed 'mIgG'); also called 5G11-mIgG; 5G11 murine) VH: QVQLKQSGPGLVQPSQSLSITCTVSGFSLTTYGVHWVRQSPGKGLEWLGVIWRGVTTDYNAAFMSRLTITKDNSKSQVFFKMNSLQANDTAIYYCARLGFYAMDYWGQGTSVTVSS VL: SIVMTQTPKFLLVSAGDRVTITCKASQSVSNDVAWYQQKPGQSPKLLIYYAANRYTGVPDRFTGSGYGTDFTFTISIVQAEDLAVYFCQQDYTSPYTFGGGTKLEIK	IC50	0.0163 µg/mL
m8H4 (antibody, V domains shown, Murine hybridoma IgG (printed 'mIgG'); also called 8H4-mIgG; 8H4 murine) VH: EVKLVESGGGLVKPGGSLKLSCAASGFTFRSYGMSWARQIPEKRLEWVASISSGGTTYYLGSVQGRFTISRDNARNILYLQMSSLRSEDTAMYYCARGYDAGFAYWGQGTLVSVSE VL: DIVLTQSPASLAVSLGQRATISCRASQSVSTSSYSYMHWYQQKPGQPPKLLIKYASNLESGVPARFSGSGSGTDFTLNIHPVEEEDTATYYCQNSWEIPYTFGGGTKLEIK	IC50	0.0306 µg/mL

Data provenance: patent US20170204184A1
